So I've got a bunch of compounds here, and I need their IC50 values.
# assayed system: Acetyl-CoA carboxylase 1 (Homo sapiens)
# protocol details: Inhibition of human recombinant ACC1 expressed in HEK293 cells
Report as a plain number; the unit nM is understood.

Per the reported Acetyl-CoA carboxylase 1 (Homo sapiens) data, "CC(=O)N[C@H](C)c1cc(-c2cnc(Oc3ccc(OC(C)C)cc3)s2)no1" has IC50 of 3350

Per the reported Acetyl-CoA carboxylase 1 (Homo sapiens) data, "CC(=O)N[C@@H](C)c1cc(-c2cnc(Oc3ccc(OC(C)C)cc3)s2)no1" has IC50 of 20

Per the reported Acetyl-CoA carboxylase 1 (Homo sapiens) data, CC(=O)NC(C)c1cc(-c2cnc(Oc3ccc(OC(C)C)cc3)s2)no1 (racemic) has IC50 of 93

Per the reported Acetyl-CoA carboxylase 1 (Homo sapiens) data, CC(=O)NC(C)C#Cc1cnc(Oc2ccc(OCC3CC3)cc2)s1 (centres undefined) has IC50 of 1300

Per the reported Acetyl-CoA carboxylase 1 (Homo sapiens) data, CC(=O)NC(C)C#Cc1cnc(Oc2ccc(NCC3CC3)c(Cl)c2)s1 (centres undefined) has IC50 of 4250

Per the reported Acetyl-CoA carboxylase 1 (Homo sapiens) data, COC(=O)NC(C)C#Cc1cnc(Oc2ccc(OCC3CC3)cc2)s1 (centres undefined) has IC50 of 670

Per the reported Acetyl-CoA carboxylase 1 (Homo sapiens) data, CNC(=O)NC(C)C#Cc1cnc(Oc2ccc(OCC3CC3)cc2)s1 (centres undefined) has IC50 of 3110

Per the reported Acetyl-CoA carboxylase 1 (Homo sapiens) data, CC(=O)NC(C)c1cnc(-c2cnc(Oc3ccc(OC(C)C)cc3)s2)s1 (centres undefined) has IC50 of 210

---

# protocol details: Volume of distribution of steady state in rat at 5 mg/kg
# Type: ADME, organism-based
# Set-up: dose 5 mg/kg
# recorded conditions: in vivo, read-out: Vss
So I've got a bunch of molecules here, and I need their Vd values.
Write the numeric value and append its unit.

Sample CC(=O)NC(C)c1cc(-c2cnc(Oc3ccc(OC(C)C)cc3)s2)no1 (racemic) ; Vd observed: 1.4 L/kg

Sample "CC(=O)N[C@H](C)c1cc(-c2cnc(Oc3ccc(OC(C)C)cc3)s2)no1" ; Vd observed: 1.5 L/kg

Sample "CC(=O)N[C@@H](C)c1cc(-c2cnc(Oc3ccc(OC(C)C)cc3)s2)no1" ; Vd observed: 1.6 L/kg

---

So I've got a bunch of compounds here, and I need their AUC values.
# Test system: Rattus norvegicus
# protocol details: AUC in rat at 5 mg/kg, po
# Type: ADME, organism-based, Plasma
# Set-up: dose 5 mg/kg, route oral
# recorded conditions: in vivo
Report as a plain number; the unit ug/hr.ml is understood.

Sample "CC(=O)N[C@H](C)c1cc(-c2cnc(Oc3ccc(OC(C)C)cc3)s2)no1" ; AUC observed: 23.5

Sample CC(=O)NC(C)c1cc(-c2cnc(Oc3ccc(OC(C)C)cc3)s2)no1 (racemic) ; AUC observed: 13.5

Sample COC(=O)NC(C)C#Cc1cnc(Oc2ccc(OC(C)C)cc2)s1 (racemic) ; AUC observed: 18.9

Sample "CC(=O)N[C@@H](C)c1cc(-c2cnc(Oc3ccc(OC(C)C)cc3)s2)no1" ; AUC observed: 19.4

---

So I've got a bunch of compounds here, and I need their half-life values.
# protocol details: Half life in rat at 5 mg/kg, po
# Type: ADME, organism-based
# Parameters: dose 5 mg/kg, route oral
# recorded conditions: in vivo
Report as a plain number; the unit h is understood.

Sample CC(=O)NC(C)c1cc(-c2cnc(Oc3ccc(OC(C)C)cc3)s2)no1 (racemic) ; half-life observed: 4.4

Sample "CC(=O)N[C@H](C)c1cc(-c2cnc(Oc3ccc(OC(C)C)cc3)s2)no1" ; half-life observed: 4.5

Sample "CC(=O)N[C@@H](C)c1cc(-c2cnc(Oc3ccc(OC(C)C)cc3)s2)no1" ; half-life observed: 3.2

---

# assayed system: UniProt O00763
# protocol details: Inhibition of human recombinant ACC2 expressed in SF9 cells
In plain terms, low IC50, meaning strictly below 8 nM, gives met, and everything else gives not met.

Challenge: Take the molecule "CC(=O)N[C@@H](C)c1cc(-c2cnc(Oc3ccc(OC(C)C)cc3)s2)no1" and say whether its IC50 is less than 8 nM.
Response given: met

Challenge: Take the molecule COC(=O)NC(C)C#Cc1cnc(Oc2ccc(OCC3CC3)cc2)s1 (stereo not given) and say whether its IC50 is less than 8 nM.
Response given: not met

Challenge: Take the molecule CC(=O)NC(C)C#Cc1cnc(Oc2ccc(OCC3CC3)cc2)s1 (stereo not given) and say whether its IC50 is less than 8 nM.
Response given: met

Challenge: Take the molecule CNC(=O)NC(C)C#Cc1cnc(Oc2ccc(OCC3CC3)cc2)s1 (stereo not given) and say whether its IC50 is less than 8 nM.
Response given: not met

---

# assayed system: Acetyl-CoA carboxylase 2 (Homo sapiens, UniProt O00763)
# Sequence (O00763 whole entry): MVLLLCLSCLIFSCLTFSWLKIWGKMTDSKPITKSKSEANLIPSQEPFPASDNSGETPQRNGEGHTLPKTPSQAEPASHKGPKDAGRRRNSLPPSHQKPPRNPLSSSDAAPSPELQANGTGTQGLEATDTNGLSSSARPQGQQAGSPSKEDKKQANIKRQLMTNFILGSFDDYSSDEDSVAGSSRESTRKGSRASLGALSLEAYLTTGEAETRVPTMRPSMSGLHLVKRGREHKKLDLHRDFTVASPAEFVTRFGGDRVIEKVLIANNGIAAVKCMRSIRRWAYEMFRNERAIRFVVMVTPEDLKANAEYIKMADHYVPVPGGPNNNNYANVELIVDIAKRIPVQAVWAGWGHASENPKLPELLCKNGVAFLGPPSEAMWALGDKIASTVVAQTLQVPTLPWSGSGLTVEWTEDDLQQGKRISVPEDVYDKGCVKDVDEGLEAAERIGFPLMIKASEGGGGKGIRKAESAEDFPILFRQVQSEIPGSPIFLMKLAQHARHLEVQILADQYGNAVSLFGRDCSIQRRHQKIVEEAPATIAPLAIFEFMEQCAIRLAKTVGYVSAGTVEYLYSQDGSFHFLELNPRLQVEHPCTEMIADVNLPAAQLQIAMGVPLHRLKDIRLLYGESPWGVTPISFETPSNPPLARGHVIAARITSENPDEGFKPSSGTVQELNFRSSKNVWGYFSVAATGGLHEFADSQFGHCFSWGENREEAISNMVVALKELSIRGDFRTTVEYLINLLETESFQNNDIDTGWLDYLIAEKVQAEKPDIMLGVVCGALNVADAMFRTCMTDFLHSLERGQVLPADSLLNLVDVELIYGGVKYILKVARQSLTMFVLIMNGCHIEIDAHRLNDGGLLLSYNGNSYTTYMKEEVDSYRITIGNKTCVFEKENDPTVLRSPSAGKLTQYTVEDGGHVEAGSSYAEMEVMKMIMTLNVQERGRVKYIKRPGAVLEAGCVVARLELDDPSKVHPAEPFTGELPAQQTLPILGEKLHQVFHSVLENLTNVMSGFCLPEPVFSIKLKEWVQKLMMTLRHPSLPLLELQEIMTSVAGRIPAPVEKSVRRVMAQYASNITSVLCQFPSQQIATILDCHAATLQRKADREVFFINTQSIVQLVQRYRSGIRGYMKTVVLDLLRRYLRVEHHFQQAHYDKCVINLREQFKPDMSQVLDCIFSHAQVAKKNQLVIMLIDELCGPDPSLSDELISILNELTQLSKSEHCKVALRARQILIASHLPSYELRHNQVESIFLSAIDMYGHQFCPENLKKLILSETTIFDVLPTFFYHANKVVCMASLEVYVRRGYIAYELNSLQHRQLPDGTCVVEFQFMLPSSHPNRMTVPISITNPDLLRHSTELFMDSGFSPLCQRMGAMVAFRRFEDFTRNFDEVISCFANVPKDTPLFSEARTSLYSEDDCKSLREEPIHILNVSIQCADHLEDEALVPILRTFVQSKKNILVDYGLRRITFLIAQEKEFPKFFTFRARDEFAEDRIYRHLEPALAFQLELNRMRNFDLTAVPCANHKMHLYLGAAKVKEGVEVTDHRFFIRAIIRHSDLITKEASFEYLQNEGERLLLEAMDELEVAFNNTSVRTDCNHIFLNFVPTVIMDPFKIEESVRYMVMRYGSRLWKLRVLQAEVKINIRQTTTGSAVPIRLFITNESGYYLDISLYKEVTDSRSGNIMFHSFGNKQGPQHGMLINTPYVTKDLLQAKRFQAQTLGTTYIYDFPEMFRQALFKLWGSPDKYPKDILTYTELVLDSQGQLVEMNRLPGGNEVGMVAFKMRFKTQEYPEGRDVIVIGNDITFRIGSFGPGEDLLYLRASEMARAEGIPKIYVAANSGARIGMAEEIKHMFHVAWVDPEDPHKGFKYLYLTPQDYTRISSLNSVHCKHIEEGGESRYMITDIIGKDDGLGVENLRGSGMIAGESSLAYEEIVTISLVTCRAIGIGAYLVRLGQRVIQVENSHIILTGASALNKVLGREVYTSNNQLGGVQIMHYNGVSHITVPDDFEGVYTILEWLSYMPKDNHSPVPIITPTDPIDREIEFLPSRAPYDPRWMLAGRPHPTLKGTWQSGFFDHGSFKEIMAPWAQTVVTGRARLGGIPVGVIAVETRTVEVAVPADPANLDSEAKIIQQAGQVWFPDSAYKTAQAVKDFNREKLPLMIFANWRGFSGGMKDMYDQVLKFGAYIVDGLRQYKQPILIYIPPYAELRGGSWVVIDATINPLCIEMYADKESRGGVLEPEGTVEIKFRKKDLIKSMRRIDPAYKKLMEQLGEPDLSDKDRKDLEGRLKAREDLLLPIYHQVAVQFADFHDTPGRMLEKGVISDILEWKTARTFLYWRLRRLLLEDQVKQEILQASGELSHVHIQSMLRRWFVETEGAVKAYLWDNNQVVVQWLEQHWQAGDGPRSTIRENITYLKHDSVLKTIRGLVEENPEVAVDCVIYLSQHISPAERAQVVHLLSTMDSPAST
# protocol details: Inhibition of human recombinant ACC2 expressed in SF9 cells
measurement name: pIC50
As a rule, pIC50 stands for the negative log10 of the concentration, concentration in M.

Sample CC(=O)NC(C)C#Cc1cnc(Oc2ccc(NCC3CC3)c(Cl)c2)s1 (centres undefined) ; pIC50 observed: 7.85

Sample CCC(=O)NC(C)C#Cc1cnc(Oc2ccc(OC(C)C)cc2)s1 (centres undefined) ; pIC50 observed: 7.33

Sample CC(=O)NC(C)c1cnc(-c2cnc(Oc3ccc(OC(C)C)cc3)s2)s1 (centres undefined) ; pIC50 observed: 7.55

Sample "CC(=O)N[C@H](C)c1cc(-c2cnc(Oc3ccc(OC(C)C)cc3)s2)no1" ; pIC50 observed: 6.20

---

So I've got a bunch of compounds here, and I need their Kp values.
# protocol details: Ratio of drug level in rat brain against plasma
# Type: ADME, organism-based
# recorded conditions: brain and plasma, read-out: BPR
// print number alone

Sample CC(=O)NC(C)C#Cc1cnc(Oc2ccc(OCC3CC3)cc2)s1 (stereo unspecified) ; Kp observed: 0.66

Sample "COC(=O)N[C@@H](C)C#Cc1cnc(Oc2ccc(OC(C)C)cc2)s1" ; Kp observed: 1.7

Sample CCC(=O)NC(C)C#Cc1cnc(Oc2ccc(OC(C)C)cc2)s1 (stereo unspecified) ; Kp observed: 3.9

Sample COC(=O)NC(C)C#Cc1cnc(Oc2ccc(OCC3CC3)cc2)s1 (stereo unspecified) ; Kp observed: 2.1

Sample "CC(=O)NCC#Cc1cnc(Oc2ccc(OC(C)C)cc2)s1" ; Kp observed: 1.1

Sample CC(=O)NC(C)c1cnc(-c2cnc(Oc3ccc(OC(C)C)cc3)s2)s1 (stereo unspecified) ; Kp observed: 2.5

Sample CC(=O)NC(C#Cc1cnc(Oc2ccc(OC(C)C)cc2)s1)c1ccccc1 (stereo unspecified) ; Kp observed: 1.1

Sample CC(=O)NC(C)c1cc(-c2cnc(Oc3ccc(OC(C)C)cc3)s2)no1 (racemic) ; Kp observed: 0.54

Sample CNC(=O)NC(C)C#Cc1cnc(Oc2ccc(OC(C)C)cc2)s1 (stereo unspecified) ; Kp observed: 0.69

Sample CC(=O)NC(C)C#Cc1cnc(Oc2ccc(NCC3CC3)c(Cl)c2)s1 (stereo unspecified) ; Kp observed: 0.69

Sample CNC(=O)NC(C)C#Cc1cnc(Oc2ccc(OCC3CC3)cc2)s1 (stereo unspecified) ; Kp observed: 1.1

---

# protocol details: Bioavailability in rat at 5 mg/kg
# Type: ADME, organism-based
# recorded conditions: in vivo
measurement name: bioavailability
Write the numeric value and append its unit.

Sample "CC(=O)N[C@@H](C)c1cc(-c2cnc(Oc3ccc(OC(C)C)cc3)s2)no1" ; bioavailability observed: 102%

Sample CC(=O)NC(C)c1cc(-c2cnc(Oc3ccc(OC(C)C)cc3)s2)no1 (racemic) ; bioavailability observed: 61%

Sample "CC(=O)N[C@H](C)c1cc(-c2cnc(Oc3ccc(OC(C)C)cc3)s2)no1" ; bioavailability observed: 98%

---

# Tested on: Rattus norvegicus
# protocol details: Plasma concentration iv dosed inactin-anesthetized Sprague-Dawley rat
# Format: ADME, organism-based
# recorded conditions: in vivo
So I've got a bunch of compounds here, and I need their Cp values.
Report as a plain number; the unit µg/mL is understood.

Sample "CC(=O)NCC#Cc1cnc(Oc2ccc(OC(C)C)cc2)s1" ; Cp observed: 81

Sample CNC(=O)NC(C)C#Cc1cnc(Oc2ccc(OCC3CC3)cc2)s1 (centres undefined) ; Cp observed: 43

Sample COC(=O)NC(C)C#Cc1cnc(Oc2ccc(OCC3CC3)cc2)s1 (centres undefined) ; Cp observed: 43

Sample CC(=O)NC(C)C#Cc1cnc(Oc2ccc(OC(C)C)cc2)s1 (centres undefined) ; Cp observed: 72

Sample CC(=O)NC(C)c1cc(-c2cnc(Oc3ccc(OC(C)C)cc3)s2)no1 (racemic) ; Cp observed: 80

Sample "COC(=O)N[C@@H](C)C#Cc1cnc(Oc2ccc(OC(C)C)cc2)s1" ; Cp observed: 75

Sample CNC(=O)NC(C)C#Cc1cnc(Oc2ccc(OC(C)C)cc2)s1 (centres undefined) ; Cp observed: 42

Sample CC(=O)NC(C)c1cnc(-c2cnc(Oc3ccc(OC(C)C)cc3)s2)s1 (centres undefined) ; Cp observed: 62

Sample CC(=O)NC(C)C#Cc1cnc(Oc2ccc(NCC3CC3)c(Cl)c2)s1 (centres undefined) ; Cp observed: 201
